Each entry below carries its recorded zone of inhibition at 2 µg/disc.
Tested on: N. gonorrhoeae FA19 (a drug-sensitive strain)
Test: Disk diffusion assay, N. gonorrhoeae FA19
Type: cell-based
Details: Neisseria gonorrhoeae, 2.0 μg per disc; disc 6 mm; read-out: diameter of the growth inhibition, FA19

[
  {
    "molecule": "CN1CCN(Cc2ccc(-c3ccc(CCCN[C@H](C(=O)NO)[C@](C)(O)C(F)F)cc3)cc2)CC1",
    "zone of inhibition at 2 µg/disc": "0 mm"
  },
  {
    "molecule": "CC(CCc1ccc(-c2ccccc2)cc1)(C(=O)NO)C(C)(O)C(F)F (single isomer, unassigned) [Example 3 Isomer A]",
    "zone of inhibition at 2 µg/disc": "20 mm"
  },
  {
    "molecule": "COc1ccc(-c2ccc(CN[C@H](C(=O)NO)[C@](C)(O)C(F)F)cc2)cc1",
    "zone of inhibition at 2 µg/disc": "16 mm"
  }
]

###

System: N. gonorrhoeae 35/02 (drug-resistant strain)
Assay: Disk diffusion assay, N. gonorrhoeae 35/02
Type: cell-based
Settings: 2.0 μg per disc; disc 6 mm
reported-endpoint: diameter of the growth inhibition, 35/02 (mm)

[
  {
    "molecule": "CC(NCCCc1ccc(-c2ccccc2)cc1)(C(=O)NO)C(C)(O)C(F)F.Cl (single isomer, unassigned) [Example 134]",
    "reported-endpoint": "diameter of the growth inhibition, 35/02",
    "recorded-value": 23
  },
  {
    "molecule": "CC(NCCCc1ccc(-c2ccccc2)cc1)(C(=O)NO)C(C)(O)C(F)F.Cl (single isomer, unassigned) [Example 135]",
    "reported-endpoint": "diameter of the growth inhibition, 35/02",
    "recorded-value": 14
  },
  {
    "molecule": "CC(CCc1ccc(-c2ccccc2)cc1)(C(=O)NO)C(C)(O)C(F)F (single isomer, unassigned) [Example 3 Isomer B]",
    "reported-endpoint": "diameter of the growth inhibition, 35/02",
    "recorded-value": 8
  },
  {
    "molecule": "CC(O)(CF)C(C)(NCCCc1ccc(-c2ccccc2)cc1)C(=O)NO.Cl (stereo not shown)",
    "reported-endpoint": "diameter of the growth inhibition, 35/02",
    "recorded-value": 15
  }
]

###

Each entry below carries its recorded zone of inhibition at 0.2 µg/disc.
Test system: N. gonorrhoeae F89 (high-level cefixime and ceftriaxone resistance)
Assay: Disk diffusion assay, N. gonorrhoeae F89
Type: cell-based
Conditions: Neisseria gonorrhoeae, 0.2 μg per disc; disc 6 mm; read-out: diameter of the growth inhibition, F89
reported-endpoint: zone of inhibition at 0.2 µg/disc (mm)

[
  {
    "molecule": "C[C@@](O)(C(F)F)[C@H](NCCCc1ccc(-c2ccccc2)cc1)C(=O)NO [Example 11]",
    "reported-endpoint": "zone of inhibition at 0.2 µg/disc",
    "unit-label": "mm",
    "recorded-value": 19
  },
  {
    "molecule": "C[C@@](O)(C(F)F)[C@H](NCc1ccc(-c2ccccc2)cc1O)C(=O)NO [Example 141]",
    "reported-endpoint": "zone of inhibition at 0.2 µg/disc",
    "unit-label": "mm",
    "recorded-value": 10
  },
  {
    "molecule": "CN1CCN(Cc2ccc(-c3ccc(CCCN[C@H](C(=O)NO)[C@](C)(O)C(F)F)cc3)cc2)CC1 [Example 144]",
    "reported-endpoint": "zone of inhibition at 0.2 µg/disc",
    "unit-label": "mm",
    "recorded-value": 0
  },
  {
    "molecule": "C[C@@](O)(C(F)F)[C@H](NC/C=C/c1ccc(-c2ccccc2)cc1)C(=O)NO [Example 147]",
    "reported-endpoint": "zone of inhibition at 0.2 µg/disc",
    "unit-label": "mm",
    "recorded-value": 28
  },
  {
    "molecule": "CC(NCCCc1ccc(-c2ccccc2)cc1)(C(=O)NO)C(O)(CF)CF (centres unmarked) [Example 148]",
    "reported-endpoint": "zone of inhibition at 0.2 µg/disc",
    "unit-label": "mm",
    "recorded-value": 13
  },
  {
    "molecule": "COc1cc(-c2ccccc2)ccc1CN[C@H](C(=O)NO)[C@](C)(O)C(F)F [Example 146]",
    "reported-endpoint": "zone of inhibition at 0.2 µg/disc",
    "unit-label": "mm",
    "recorded-value": 0
  },
  {
    "molecule": "C[C@@](O)(C(F)F)[C@H](NCc1ccc2cc(-c3ccccc3)ccc2c1)C(=O)NO [Example 149]",
    "reported-endpoint": "zone of inhibition at 0.2 µg/disc",
    "unit-label": "mm",
    "recorded-value": 19
  },
  {
    "molecule": "C[C@@](O)(C(F)F)[C@H](NC(=O)CCc1ccc(-c2ccccc2)cc1)C(=O)NO [Example 14]",
    "reported-endpoint": "zone of inhibition at 0.2 µg/disc",
    "unit-label": "mm",
    "recorded-value": 18
  }
]
